# experiment_notes: Electrical activity assay on cell lines treated with a given drug. DMSO was used as a vehicle and a control, unblinded dofetilide was used as a control.
# Assay type: ADME, cell-based
# measurement_setup: human, ipsc-cm, 0.1 µM; concentration (um) 0.1 uM

{"columns": ["compound", "FPD measurement [FPDc]"],
 "data": [
  ["CC(C)N(CCC(C(N)=O)(c1ccccc1)c1ccccn1)C(C)C (stereo not given) [DISOPYRAMIDE]", 49.69],
  ["COc1ccccc1OCC(O)CN1CCN(CC(=O)Nc2c(C)cccc2C)CC1 (stereo not given)", 51.73],
  ["CC(C)NCC(O)c1ccc(NS(C)(=O)=O)cc1 (stereo not given)", 50.96],
  ["CC(C)(C)c1ccc(C(O)CCCN2CCC(C(O)(c3ccccc3)c3ccccc3)CC2)cc1 (stereo not given)", 71.18],
  ["COc1cc2c(Nc3ccc(Br)cc3F)ncnc2cc1OCC1CCN(C)CC1", 55.37]
]}

src = ChEMBL document CHEMBL4295262
